# Test system: NCI-H1299
# TEST_DETAILS: Cancer cell line panel proliferation (CellTiter-Glo)
# Assay type: cell-based
# EXPERIMENTAL_SETUP: NCI-H1299, Lung, 72 hours
OBSERVABLE: IC50 (µM)

MOLECULE	OBSERVABLE	NUMERIC_VALUE
CN(C)CCNC(=O)c1ccc(-c2ccc(-c3ccc(Cl)cc3)n2-c2ccccc2C(F)(F)F)cc1 (single isomer, unassigned; atropisomer a) [Atropisomer A-1]	IC50	8.25

---

# System: Kasumi-1
# TEST_DETAILS: Cancer cell line panel proliferation (CellTiter-Glo)
# Type: cell-based
# EXPERIMENTAL_SETUP: Homo sapiens; Kasumi-1, Blood/Leukaemia, 72 hours
pIC50: −log10 of the molar value.
OBSERVABLE: pIC50

> print(dat)
                                   compound  observable  numeric.value
1  CN(C)CCNC(=O)c1ccc(-c2ccc(-c3ccc(Cl)cc3)n2-c2ccccc2C(F)(F)F)cc1 (single isomer, unassigned) [Atropisomer A-2]       pIC50           6.48

---

# Test system: LN-229
# TEST_DETAILS: Cancer cell line panel proliferation (CellTiter-Glo)
# Format: cell-based
# EXPERIMENTAL_SETUP: Homo sapiens; LN-229, Brain&Nerves, 72 hours
OBSERVABLE: IC50 (nM)

> print(dat)
                                   compound  numeric.value
1  CN(C)CCNC(=O)c1ccc(-c2ccc(-c3ccc(Cl)cc3)n2-c2ccccc2C(F)(F)F)cc1 (single isomer, unassigned) [Atropisomer A-2]            310

---

# Test system: Raji
# TEST_DETAILS: Cancer cell line panel proliferation (CellTiter-Glo)
# Type: cell-based
# EXPERIMENTAL_SETUP: Homo sapiens, Blood/Lymphoma, 72 hours
# Procedure: Screening against diverse cancer cell lines was performed to identify tumour types displaying sensitivity to atropisomers A-1 and A-2. A panel of 48 cancer-derived cell lines was screened in a high-throughput proliferation assay using dilutions of atropisomers A-1/A-2. […] IC50 values were calculated by fitting the dose-response data using a nonlinear regression model.
pIC50: −log10 of the molar value.
OBSERVABLE: pIC50

> print(dat)
                                   molecule  observable  numeric.value
1  CN(C)CCNC(=O)c1ccc(-c2ccc(-c3ccc(Cl)cc3)n2-c2ccccc2C(F)(F)F)cc1 (single isomer, unassigned) [Atropisomer A-2]       pIC50           6.44

---

# Tested on: HBL-1
# TEST_DETAILS: Cancer cell line panel proliferation (CellTiter-Glo)
# Assay type: cell-based
# EXPERIMENTAL_SETUP: HBL1; HBL-1, Blood/Lymphoma, 72 hours
OBSERVABLE: IC50 (nM)

> print(dat)
                                   molecule  observable  numeric.value
1  CN(C)CCNC(=O)c1ccc(-c2ccc(-c3ccc(Cl)cc3)n2-c2ccccc2C(F)(F)F)cc1 (single isomer, unassigned) [Atropisomer A-2]        IC50            660

---

# Test system: NCI-H460
# TEST_DETAILS: Cancer cell line panel proliferation (CellTiter-Glo)
# Type: cell-based
# EXPERIMENTAL_SETUP: Homo sapiens; NCI-H460, Lung, 72 hours
pIC50: −log10 of the molar value.
OBSERVABLE: pIC50

> print(dat)
                                   molecule  observable  numeric.value
1  CN(C)CCNC(=O)c1ccc(-c2ccc(-c3ccc(Cl)cc3)n2-c2ccccc2C(F)(F)F)cc1 (single isomer, unassigned) [Atropisomer A-2]       pIC50           6.52
